Tested on: Plasmodium falciparum
Experiment: Antimalarial activity against ring stage chloroquine-resistant Plasmodium falciparum Dd2 infected in human O positive erythrocytes after 48 hrs by SYBR green 1 fluorescence assay
Type: functional, organism-based
Conditions: Dd2, 48 h
endpoint label: IC50 (µM)
Number in µM, nothing else.

compound string	IC50, µM
COc1cc(/C=C/c2ccc(C(=O)/C=C/c3ccc(OC)c(OC)c3OC)cc2)cc(OC)c1O	5.39
COc1cc(OC)c(OC)cc1/C=C/C(=O)c1ccc(/C=C/c2cc(OC)c(OC(C)=O)c(OC)c2)cc1	2.2
COc1cc(OC)c(OC)cc1/C=C/C(=O)c1ccc(/C=C/c2ccc(O)c(O)c2)cc1	7.1
COc1cc(OC)c(OC)cc1/C=C/C(=O)c1ccc(/C=C/c2cc(OC)c(OC)c(OC)c2)cc1	2.6

Consider the compound "COc1cc(OC)c(C(=O)/C=C/c2ccc(/C=C/c3cc(OC)c(O)c(OC)c3)cc2)cc1OC" and give its measured IC50.
3.01

I would be grateful if you could share the reported IC50 for "COc1cc(OC)c(OC)cc1/C=C/C(=O)c1ccc(/C=C/c2cc(OC)c(O)c(OC)c2)cc1" .
6.4

Which IC50 reading was recorded for the compound "COc1cc(/C=C/c2ccc(C(=O)/C=C/c3cc(OC)c(OC)cc3OC)cc2)ccc1O" ?
3.71

* * *

Experiment: Resistance index, ratio of IC50 for ring stage chloroquine-resistant Plasmodium falciparum Dd2 to IC50 for ring stage chloroquine-sensitive Plasmodium falciparum 3D7
Assay type: functional
Values of Ratio IC50 strictly less than 1 map to 1 (yes), and values of at least 1 map to 0 (no).

Below are worked cases with known answers.
compound string	class name
COc1cc(/C=C/c2ccc(C(=O)/C=C/c3cc(OC)c(OC)cc3OC)cc2)ccc1O	1 (yes)
COc1cc(OC)c(C(=O)/C=C/c2ccc(/C=C/c3cc(OC)c(O)c(OC)c3)cc2)cc1OC	1 (yes)
COc1cc(OC)c(OC)cc1/C=C/C(=O)c1ccc(/C=C/c2ccc(O)c(O)c2)cc1	0 (no)

Given "COc1cc(OC)c(OC)cc1/C=C/C(=O)c1ccc(/C=C/c2cc(OC)c(OC)c(OC)c2)cc1" , is recorded Ratio IC50 strictly lower than 1?
1 (yes)

Is Ratio IC50 strictly under 1 for the entry "COc1cc(/C=C/c2ccc(C(=O)/C=C/c3ccc(OC)c(OC)c3OC)cc2)cc(OC)c1O" ?
0 (no)

Strictly below 1 in Ratio IC50? "COc1cc(OC)c(OC)cc1/C=C/C(=O)c1ccc(/C=C/c2cc(OC)c(O)c(OC)c2)cc1"
0 (no)

* * *

Assay: Therapeutic index, ratio of IC50 for human HeLa cells to IC50 for ring stage chloroquine-sensitive Plasmodium falciparum 3D7
Assay type: cell-based
Conditions: read-out: Ratio IC50
The following molecules are shown together with reported selectivity ratio values.

# count of solved cases: 5
compound string	selectivity ratio
COc1cc(/C=C/c2ccc(C(=O)/C=C/c3ccc(OC)c(OC)c3OC)cc2)cc(OC)c1O	> 43
COc1cc(/C=C/c2ccc(C(=O)/C=C/c3cc(OC)c(OC)cc3OC)cc2)ccc1O	> 37.7
COc1cc(OC)c(OC)cc1/C=C/C(=O)c1ccc(/C=C/c2cc(OC)c(OC(C)=O)c(OC)c2)cc1	> 45.5
COc1cc(OC)c(OC)cc1/C=C/C(=O)c1ccc(/C=C/c2cc(OC)c(OC)c(OC)c2)cc1	> 38.5
COc1cc(OC)c(OC)cc1/C=C/C(=O)c1ccc(/C=C/c2cc(OC)c(O)c(OC)c2)cc1	42.3

selectivity ratio lookup needed for "COc1cc(OC)c(OC)cc1/C=C/C(=O)c1ccc(/C=C/c2ccc(O)c(O)c2)cc1" , thanks.
> 23.8

Param item = "COc1cc(OC)c(C(=O)/C=C/c2ccc(/C=C/c3cc(OC)c(O)c(OC)c3)cc2)cc1OC" ; retrieve measured selectivity ratio.
> 46.5
